Measured values drawn from PubChem BioAssay (Tox21) for this set.

test: qHTS assay to identify small molecule antagonists of the sonic hedgehog signaling (Shh) pathway (AID 1259369); details: NIH/3T3 Gli1-Luc reporter, Shh antagonist, luminescence 24 h; series mostly up to 92.4 µM; also: nearly all actives have a fitted effect of over 45% in size
Inconclusive results are not listed. Activity calls are given as the source filed them. Calls follow the shape of the full dose curve.
Select the correct class. Options are active, inactive and nothing else.

| compound | group.label |
| --- | --- |
| CC(=O)C(Cl)C(=O)N(C)C (stereo unspecified) | inactive |
| Cc1ccc2cc3c(ccc4ccccc43)c3c2c1CC3 | inactive |
| O=[N+]([O-])c1ccccc1-c1ccccc1 | inactive |
| Nc1c(Cl)c(Cl)c(Cl)c(Cl)c1Cl | inactive |
| CCN(CC)CCN1C(=O)CN=C(c2ccccc2F)c2cc(Cl)ccc21 | inactive |
| CCCN | inactive |
| C#CCC1=C(C)C(OC(=O)C2C(C=C(C)C)C2(C)C)CC1=O (stereo unspecified) | inactive |
| O=[N+]([O-])c1cc(C(F)(F)F)c(Cl)c([N+](=O)[O-])c1Nc1ncc(C(F)(F)F)cc1Cl | active |

Name the outcome recorded for `Clc1ccc(C(Cl)(Cl)Cl)cc1Cl` in the assay. inactive

Name the outcome recorded for CC(C)=CC1C(C(=O)OC(C#N)c2cccc(Oc3ccccc3)c2)C1(C)C (stereo unspecified) in the assay. inactive

Name the outcome recorded for `Cc1ccn2nc(S(=O)(=O)Nc3c(F)cccc3F)nc2n1` in the assay. inactive

Name the outcome recorded for `Oc1cccc(Cl)c1Cl` in the assay. inactive

Name the outcome recorded for CC(C)C(Br)C(=O)NC(N)=O (stereo unspecified) in the assay. inactive

Name the outcome recorded for `CN1C(=O)[C@@H](NC(=O)c2cc3ccccc3[nH]2)N=C(c2ccccc2)c2ccccc21` in the assay. inactive

Name the outcome recorded for `CC(=O)O.CC(=O)O.CC(=O)O.CC(=O)O.CC(=O)O.CC(=O)O.CC(=O)O.O.O.[Cr].[Cr].[Cr]` in the assay. inactive

Name the outcome recorded for `O=c1[nH]c(Cl)c(Cl)cc1Cl` in the assay. inactive

Name the outcome recorded for CC(Cc1ccc(O)cc1)NCC(O)c1cc(O)cc(O)c1 (stereo unspecified) in the assay. inactive

* * *

biological target: Aryl hydrocarbon receptor (Homo sapiens) (UniProt P35869); test: qHTS assay to identify small molecule that activate the aryl hydrocarbon receptor (AhR) signaling pathway (AID 743085); details: HepG2 AhR-luc (HG2L7.5c1), luciferase, 24 h; series mostly up to 70.3 µM;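 also: HG2L7.5c1 human HepG2 liver cells with stably integrated DRE-driven firefly reporter; nearly all actives have a fitted effect of over 15% in size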
Sequence (P35869 whole entry, looked up): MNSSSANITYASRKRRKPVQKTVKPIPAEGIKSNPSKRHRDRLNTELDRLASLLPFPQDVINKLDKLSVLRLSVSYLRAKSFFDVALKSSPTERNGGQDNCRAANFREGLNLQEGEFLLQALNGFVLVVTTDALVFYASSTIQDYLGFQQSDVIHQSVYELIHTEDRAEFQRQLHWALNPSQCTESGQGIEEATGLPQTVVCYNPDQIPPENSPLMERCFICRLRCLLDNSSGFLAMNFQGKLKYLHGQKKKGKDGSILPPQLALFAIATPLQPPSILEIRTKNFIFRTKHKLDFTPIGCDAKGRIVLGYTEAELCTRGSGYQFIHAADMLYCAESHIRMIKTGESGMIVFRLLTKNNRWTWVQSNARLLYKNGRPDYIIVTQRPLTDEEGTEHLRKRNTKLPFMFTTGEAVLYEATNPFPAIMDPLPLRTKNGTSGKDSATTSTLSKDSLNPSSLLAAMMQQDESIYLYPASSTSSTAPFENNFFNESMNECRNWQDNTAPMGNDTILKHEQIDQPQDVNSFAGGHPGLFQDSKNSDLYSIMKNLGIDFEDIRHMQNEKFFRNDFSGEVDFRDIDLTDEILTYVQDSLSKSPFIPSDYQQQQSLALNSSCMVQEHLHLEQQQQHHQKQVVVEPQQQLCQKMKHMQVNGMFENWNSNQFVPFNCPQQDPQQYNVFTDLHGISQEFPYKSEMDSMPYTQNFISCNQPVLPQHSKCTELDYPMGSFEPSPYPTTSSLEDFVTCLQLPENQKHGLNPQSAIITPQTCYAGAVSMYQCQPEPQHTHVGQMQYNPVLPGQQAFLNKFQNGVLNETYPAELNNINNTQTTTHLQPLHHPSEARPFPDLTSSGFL
Inconclusive results are not listed. Activity calls are given as the source filed them. The call rests on the fitted dose curve; in most records, active means well fitted activation curve with a large enough effect in the repeat runs; inconclusive means weak or mixed curves; inactive means no such curve, though single readings can be large or run the other way.
result.type: outcome

Would you please look over these solved cases?
| compound | recorded.measurement |
| --- | --- |
| CCNc1nc(NC(C)C(C)C)nc(SC)n1 (configuration not stated) | inactive |
| Oc1ccc(Cl)c(Cl)c1 | inactive |
| CN/C(=N\[N+](=O)[O-])NCc1cnc(Cl)s1 | inactive |
| O.O.O.O=C([O-])[C@H]([O-])[C@@H]([O-])C(=O)[O-].O=C([O-])[C@H]([O-])[C@@H]([O-])C(=O)[O-].[K+].[K+].[Sb+3].[Sb+3] | inactive |
| ClSC(Cl)(Cl)Cl | inactive |
| BrCC(Br)(Br)Br | inactive |

If you can, please state the reported outcome value of `C#CC1(O)CCCCC1` . inactive

* * *

experiment: A CellTox Green Cytotoxicity Assay to monitor cytotoxicity in HEK293 cells - 16 hour (AID 1224888); settings: CellTox Green fluorescence; series mostly up to 76.8 µM; also: nearly all actives have a fitted effect of over 35% in size
Records with an inconclusive call do not appear. The source made the active and inactive calls. Calls follow the shape of the dose curve; as a rule, active = well fitted activation curve with a large enough effect in the repeat runs; inconclusive = weak or mixed curves; inactive = flat fitted curve, though single readings scatter.

| mol.smiles | outcome |
| --- | --- |
| C=CC(=C)C | inactive |
| CCC1(CC)C(=O)N=C(O)NC1=O | inactive |
| O=[N+]([O-])[O-].[Tl+] | inactive |
| Clc1ccc(C(c2ccc(Cl)cc2)C(Cl)Cl)cc1 | inactive |
